Source listed as patent US20230002496A1.

Biological target: T1, human GM-CSFRα, full length on cells (human, UniProt P15509 23-400)
T1 sequence: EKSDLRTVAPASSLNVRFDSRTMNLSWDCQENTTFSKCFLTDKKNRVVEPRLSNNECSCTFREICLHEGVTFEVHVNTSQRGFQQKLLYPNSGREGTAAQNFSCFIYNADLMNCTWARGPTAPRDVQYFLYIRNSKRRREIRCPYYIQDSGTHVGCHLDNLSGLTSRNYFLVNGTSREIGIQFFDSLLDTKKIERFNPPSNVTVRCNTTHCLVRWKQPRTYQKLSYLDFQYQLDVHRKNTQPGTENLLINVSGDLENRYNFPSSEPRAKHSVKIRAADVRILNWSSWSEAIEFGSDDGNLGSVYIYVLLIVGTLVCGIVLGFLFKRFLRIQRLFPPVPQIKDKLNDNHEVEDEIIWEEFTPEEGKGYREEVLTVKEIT
Assay: cell-based or functional assay
Reported IC50, TF-1 cell proliferation values for a set of binders
# number only, unit mg/L dropped from output

Worked examples, 2 binders total:
[[record]]
binder = "E35-scFv LY32G (scFv, V domains shown) VH: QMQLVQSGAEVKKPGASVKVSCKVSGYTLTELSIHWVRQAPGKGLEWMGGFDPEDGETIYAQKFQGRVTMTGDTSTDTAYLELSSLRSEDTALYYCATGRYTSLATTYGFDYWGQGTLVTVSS VL: EIVMTQSPATLSLSPGERATLSCRASQSVSSGLAWYQQKPGQAPRLLIYGASSRATGIPDRFSGSGSGTDFTLTISRLEPEDFAVYYCQQYDNWPYTFGQGTKLEIK"
resultnumber = 1.35

[[record]]
binder = "E35-scFv LS26I (scFv, V domains shown) VH: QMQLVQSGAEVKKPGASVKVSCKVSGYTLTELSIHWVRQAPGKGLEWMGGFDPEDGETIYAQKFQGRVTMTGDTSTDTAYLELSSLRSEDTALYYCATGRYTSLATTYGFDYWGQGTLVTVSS VL: EIVMTQSPATLSLSPGERATLSCRAIQSVSSYLAWYQQKPGQAPRLLIYGASSRATGIPDRFSGSGSGTDFTLTISRLEPEDFAVYYCQQYDNWPYTFGQGTKLEIK"
resultnumber = 0.073


Next up:
Look up IC50, TF-1 cell proliferation: E35-scFv HE31Y (scFv, V domains shown) VH: QMQLVQSGAEVKKPGASVKVSCKVSGYTLTYLSIHWVRQAPGKGLEWMGGFDPEDGETIYAQKFQGRVTMTGDTSTDTAYLELSSLRSEDTALYYCATGRYTSLATTYGFDYWGQGTLVTVSS VL: EIVMTQSPATLSLSPGERATLSCRASQSVSSYLAWYQQKPGQAPRLLIYGASSRATGIPDRFSGSGSGTDFTLTISRLEPEDFAVYYCQQYDNWPYTFGQGTKLEIK
0.2
